Experiment: yeast display, Sf9 membrane polyspecificity reagent, FACS + sequencing; frameworks hold sequencing errors

seqString | polyreactivity (PSR sort gate)
QVQLVESGGGLVQAGGSLRLSCAASGSTFKYYAMGWYRQAPGKERELVAAISSGGSTYYADSVKGRFTISRDNAKNTVYLQMNSLKPEDTAVYYCAARGYYGKFSGSGYWGQGTQVTVSS | high polyreactivity
QVQLVESGGGLVQAGGSLRLSCAASGSIIVYNTMGWYRQAPGKERELVAAITVRDDSTYYADSVKGRFTISRDYAKNTVYLQMNSLNPEDTAVYYCNARGYFLIGRDYWGQGTQVTVSS | low polyreactivity
QVQLVESGGGLVQAGGSLRLSCAASGRSFVGNAMGWYRQAPGKERELVASITRGGRTNYADSVNGRFTISRDNAKNTVYLQMNSLKPEDTAVYYCNAPGVTRAYLVGYDYWGQGTQVTVSS | low polyreactivity
QVQLVESGGGLVQAGGSLRLSCAASGRTFTQYAMGWYRQAPGKERELVAAISWRGGSTYYADSVKGRFTISRDNAKNTVYLQMNSLKPEDTAVYYCAKRYFRGYPLYDYWGQGTQVTVSS | high polyreactivity
QVQLVESGGGLLQAGGSLRLSCAASGLIFRSYAMGWYRQAPGKERDLVAAITDLFWSTYYADSVKGRFTISRDNAKNTVYLQMNSLKPEDTAVYYCARDDWVYTNVEMDYWGQGTQVTVSS | high polyreactivity
QVQLVESGGGFVQAGGSLRLSCAACGRIFATYAMRWYRQAPGKERELVASFSYSDGSTYADSVKGRFTISRDNAKNTVYLQMNSLKPEDTAVYYCAAERLTHWGAFAAYDYWGQGTQVTVSS | low polyreactivity
QVQLVESGGGLVQAGGSLRLSCAASGSNFLAYAMGWYRQAPGKERELVADISWGGGSTSYADSVKGRFTISRDNAKNTVYLQMNSLKPEDTAVYYCNKGSFSKRRDYYWGQGTQVTVSS | high polyreactivity
QVQLVESGGGLVQAGGSLRLSCAAYGSTFSLNTMGWYRQAPGKERELVAAITSGGSTNYADSVKGRFTISRDNAKNTVYLQMNSLKPEDTSVYYCAATPGRGGGYNYWGQGTQVTVSS | low polyreactivity
QVHLVESGGGLVQAGGSLRLSCAASGRTFSAYAMGWYRQAPGKEREDVAAISRSGGSTYYADSVKGRFPISRDNAKNTVYLQMNILTPEDTAVSDCAVRWPSARIPVKLEDWGQGTQVTVSS | high polyreactivity
QVQLVESGGGLVQAGASLRLSCAASGIIFNVKAMGWYRQAPGKERELVAAITSGANTYYADSVKGRFTISRDNAKNTVYLQMNSLKPEDSAVYYCNKVGSNSVGPGYDYWGHGTQVTVSS | high polyreactivity
QVQLVESGGGLVQAGGSLRLSCAASGSTLVKYAMGWYRQAPGKERELVAAISWSGGRTYYADSVKGRFTISRDNAKNNVYLQMNSLKPEDTAVYYCAARRKAVRYDYWGQGTQVTVSS | high polyreactivity
QVQLGDSGGGLVQAGGRLRLSCAASGRTIRPYTMGWYRQAPGNERALVAAITSGGGSTYYADSVKGRFTISRDNAKNTVTLQMHSLKPDDTAVYYCAAPRRERWIDVNQHYSWGQGTQVTVSS | low polyreactivity
QVQLVESGGGLVLAGGSLRLSCAASGSTFTIYALGWYRQAPVKQRELVAAITSGGSTYADSVKRRFTISRDNAKNTVYLEMNSLKPEETAVDYCATVTFSHAQRTWYDYWGQGSQVTVSS | high polyreactivity
QVQLVESGGGLVQAGGSLSLSCAASGITLYWYAMRWYIQAPGKERELVATINWSGGSTYYADSVKGRFTISRDNAKNTVYLQMNSLKPEDTAVYYCNVDYSDEGMGYWGQGTQVTVSS | low polyreactivity
QVRLVESGGGLVQAGGSLRLSCAASGRIFYRYAIGWYRQAPGKERELVAAISSSGGSTYYADSVKGRFTISRDNAKNTVYLQMNSLKPEDTAVYYCAADAGSINSGYDYWGQGTQVTVSS | low polyreactivity
QVQLVESGGGLVQAGGSLRLSCAASGGTFSPYDMGWYRQAPGKERELVASITGSGGSTYYADSVKGRFTISRGNAKNTVYLQMNSLKPEDTAVYYCAAQGYCTYWPYLLRLYEYWGHGTQVTVSS | low polyreactivity
QFQLVESGGGLVQAGGSLRLSCAASGIIFGNNAMGWYRQAPGKERELVAAIRWSTGTTYYADSVKGRFTISRDNAKNTVYLQMNSLKPEDTAVYYCAARLRREYGYWGQGTQVTVSS | high polyreactivity
QVQLVESGGGLVQAGGSLRLSCAASGSIFYYYAMGWSRQAPGKERELVAGINSGDSTYYADSVKGRFTISRDNAKNTVYLQMNRLKPEYTAVYYCAASADWWYEYWGQGTEVTVSS | low polyreactivity
QVQLEESGGGIVQAGGSLRLSCAASGGIFGTYAMGWYRQAPRKERELVASISSDTSTTYADSVKGRFTISRDNAKNTVYLQMNSLKAEDTAVYYCAAGSDYDDDYWGQGTQVTVSS | high polyreactivity
QVQLVESGGGLVQAGGSLRLSCAASGSTFAAYVMGWYRQAPGKEWELVAAITSGGSTYYADSVKGRFTISRDNAKNTVYLQMNSLKPEDTAVYYCAASWIRYRWRYGYWGQGTQVTVSS | high polyreactivity
QVQLVESGGGLVQAGGSLRLSCAASGRIFVYNVMGRYRQAPGKERDLVAAISWGTGSTYADSVKGRFTISRDNAKNTVYLQMNSLKPEDTAVYYCAADSFIPPYDHWGLGTQVTVSS | low polyreactivity
